Reference source for all entries: ChEMBL document CHEMBL2331144

# Test system: RXF 393
# Protocol: Growth inhibition of human RXF393 cells at 10 uM after 48 hrs by sulforhodamine B assay
# Assay type: functional
# Test conditions: RXF 393, 48 h, read-out: GI
Catalogue of molecules with associated inhibition of growth at 10 µM
Express your answer in %, writing the number without its unit.

inhibition of growth at 10 µM for `CCOC(=O)c1cc(C(=O)N2c3ccccc3Sc3ccccc32)n2ccc(N(C)C)cc12` is 33.3

* * *

# Test system: MDA-MB-468
# Protocol: Growth inhibition of human MDA-MB-468 cells at 10 uM after 48 hrs by sulforhodamine B assay
# Type: functional
# Test conditions: MDA-MB-468, 48 h, read-out: GI
Catalogue of molecules with associated inhibition of growth at 10 µM
Express your answer in %, writing the number without its unit.

>  <Item smiles>
CCOC(=O)c1cc(C(=O)N2c3ccccc3Sc3ccccc32)n2ccc(N(C)C)cc12

>  <inhibition of growth at 10 µM (%)>
19.7

$$$$

MDA-MB-468 assay, molecule `CC(=O)c1cn(C(=O)N2c3ccccc3Sc3ccccc32)c2ccccc12` , recorded inhibition of growth at 10 µM = 14

MDA-MB-468 assay, molecule `O=C(c1cnc2ccccn12)N1c2ccccc2Sc2ccccc21` , recorded inhibition of growth at 10 µM = 7.3

MDA-MB-468 assay, molecule `O=C(c1cc2cc(F)ccc2[nH]1)N1c2ccccc2Sc2ccccc21` , recorded inhibition of growth at 10 µM = 11.6
